# Subject of test: MYC (p64);MAX (p21), in MYC:MAX (human;human, UniProt P01106-1;P61244-2 1-439;1-151, |)
# Sequence (P01106 16-454, chain 1 of 2): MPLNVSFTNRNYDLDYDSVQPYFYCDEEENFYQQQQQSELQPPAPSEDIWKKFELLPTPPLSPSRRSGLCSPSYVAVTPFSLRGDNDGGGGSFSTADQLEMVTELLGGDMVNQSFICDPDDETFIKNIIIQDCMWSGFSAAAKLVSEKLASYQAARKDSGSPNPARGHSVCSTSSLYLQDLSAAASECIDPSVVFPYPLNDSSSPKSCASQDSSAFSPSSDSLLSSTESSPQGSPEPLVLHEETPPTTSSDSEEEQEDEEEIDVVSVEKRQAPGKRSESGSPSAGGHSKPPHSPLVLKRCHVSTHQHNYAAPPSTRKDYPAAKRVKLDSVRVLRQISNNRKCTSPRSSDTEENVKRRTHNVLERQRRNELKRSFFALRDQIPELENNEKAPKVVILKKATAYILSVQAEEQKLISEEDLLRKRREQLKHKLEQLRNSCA
# Sequence (P61244 other isoform, or with tags, fused parts or gaps |, chain 2 of 2): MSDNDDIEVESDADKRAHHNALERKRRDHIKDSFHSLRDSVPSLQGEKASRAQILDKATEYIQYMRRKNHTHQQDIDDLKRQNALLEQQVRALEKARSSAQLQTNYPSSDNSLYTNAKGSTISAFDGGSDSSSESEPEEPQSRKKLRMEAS
# Assay info: protein-binding microarray (anti-MAX antibody); PBM: 15 mM Tris-HCl pH 7.5, 100 mM KCl, 0.075% NP40, 7.5 mM beta-mercaptoethanol, 375 ng/ul BSA, 8 ng/ul poly(dA-dT):(dA-dT), 550 ng complex, 60 min, room tempe; high values mean tight binding
# Run conditions: protein: recombinant;recombinant; tags: 6xHis;6xHis; copies: 1;1; label: 3' end of printed strand (linker) attached to glass slide; dsDNA, one strand shown
Whole data set: some 5,000 sequences, median “log2 normalized fluorescence” near 0.089, cut for the highest 2% near 0.81. This is one part of a sample in which the highest values are shown more often than they occur.
Reported property: binding signal

Here's what some known entries look like.
| Chain | binding signal |
| --- | --- |
| CCGGCTTACATGTGGTATTAATAGCTAAGATTACTATATCGACG | 0.625 log2 normalized fluorescence |
| CCGGCAGAAACGCGGTATTAATAGCTAAGATTACTATATCGACG | 0.575 log2 normalized fluorescence |
| CCGGCTCACACGTCGTATTAATAGCTAAGATTACTATATCGACG | 0.506 log2 normalized fluorescence |

// for each sequence below, give its binding signal
1. CCGGCTGAGGCTATGTATTAATAGCTAAGATTACTATATCGACG
2. CCGGCTGACACGAGATATTAATAGCTAAGATTACTATATCGACG
3. CCGGCCTCCACGTGGTATTAATAGCTAAGATTACTATATCGACG

Result ::
1. -0.0462 log2 normalized fluorescence
2. 0.491 log2 normalized fluorescence
3. 0.737 log2 normalized fluorescence

---

Record form. Attribute: binding signal. Fill in for each entry.
# Subject of test: MYC (p64);MAX (p21), in MYC:MAX (human;human, UniProt P01106-1;P61244-2 1-439;1-151, |)
# Assay info: protein-binding microarray (anti-MAX antibody); PBM: 15 mM Tris-HCl pH 7.5, 100 mM KCl, 0.075% NP40, 7.5 mM beta-mercaptoethanol, 375 ng/ul BSA, 8 ng/ul poly(dA-dT):(dA-dT), 550 ng complex, 60 min, room tempe; high values mean tight binding
# Run conditions: protein: recombinant;recombinant; tags: 6xHis;6xHis; copies: 1;1; label: 3' end of printed strand (linker) attached to glass slide; dsDNA, one strand shown
In all, about 5,000 sequences were measured (“log2 normalized fluorescence”: median about 0.089, highest 2% from about 0.81 on). The list comes from a sample in which the highest values are over-represented; it also holds close analogues and randomly drawn sequences.

| Chain | binding signal |
| --- | --- |
| CCGGCGTCCACGTGGTATTAATAGCTAAGATTACTATATCGACG | 0.808 log2 normalized fluorescence |

// for each sequence below, give its binding signal
1. CCGGCCTACACGTGGTATTAATAGCTAAGATTACTATATCGACG
2. CCGGCTCACACGTGGTATTAATAGCTAAGATTACTATATCGACG
3. CCGGCCGACACGTGGAATTAATAGCTAAGATTACTATATCGACG
4. CCGGCTGAATTCCCGTATTAATAGCTAAGATTACTATATCGACG
5. CCGGCTTGCACTTGGTATTAATAGCTAAGATTACTATATCGACG
6. CCGGCTGACACGTGATATTAATAGCTAAGATTACTATATCGACG
7. CCGGCCGACATGTGGTATTAATAGCTAAGATTACTATATCGACG
8. CCGGCTGAGGCAAGGTATTAATAGCTAAGATTACTATATCGACG

Result ::
1. 0.805 log2 normalized fluorescence
2. 0.998 log2 normalized fluorescence
3. 0.832 log2 normalized fluorescence
4. 0.003 log2 normalized fluorescence
5. 0.318 log2 normalized fluorescence
6. 0.522 log2 normalized fluorescence
7. 0.663 log2 normalized fluorescence
8. 0.281 log2 normalized fluorescence

// for each sequence below, give its binding signal
1. CCGGCTAACACGTGGAATTAATAGCTAAGATTACTATATCGACG
2. CCGGCTGACACGTGATGTTAATAGCTAAGATTACTATATCGACG
3. CCGGCTGACACGTGAGATTAATAGCTAAGATTACTATATCGACG
4. CCGGCTGACCAAGTGTATTAATAGCTAAGATTACTATATCGACG
5. CCGGCGTATACGTGGTATTAATAGCTAAGATTACTATATCGACG

Result ::
0.812 log2 normalized fluorescence
0.851 log2 normalized fluorescence
0.826 log2 normalized fluorescence
0.214 log2 normalized fluorescence
0.202 log2 normalized fluorescence

// for each sequence below, give its binding signal
1. CCGGCTGACACGTGAAGTTAATAGCTAAGATTACTATATCGACG
2. CCGGCTGAGGGTCGGTATTAATAGCTAAGATTACTATATCGACG
3. CCGGCTGACACGTGAGGTTAATAGCTAAGATTACTATATCGACG

Result ::
0.527 log2 normalized fluorescence
0.137 log2 normalized fluorescence
0.702 log2 normalized fluorescence
